# Tested on: CCL2 protein levels
# assay-notes: Secondary screening: CCL2 protein ELISA in M1 polarized bone marrow derived macrophages
# Assay type: cell-based
# protocol-conditions: Z score of CCL2 protein (ELISA); 1 μM compound, 24 h, IFNg+LPS (M1) polarized bone marrow derived macrophages
Consider the cut-off -0.9. If the recorded Secondary Screen ZCCL2 is strictly smaller, the label is T; if not, the label is F.

Look over these answered cases.
compound: CC(O)c1cn(CC2CCN(C(=O)c3cscn3)CC2)nn1 (stereo not shown)
class-name: T
--
compound: COc1cccc2ccc(-c3ccc(N)nc3)nc12
class-name: F
--
compound: CCCn1cc(NC(=O)NCc2nn(C)c3ccc(C)cc23)nn1
class-name: F
--
compound: CC(C)NC(=O)NCC1CCCN(Cc2ccc3c(c2)OCCO3)C1 (stereo not shown)
class-name: F
--
compound: CCc1n[nH]c(SCC(=O)NCCC(=O)Nc2nccs2)n1
class-name: F
--
compound: CC(=O)N1CCN(Cc2cnn(-c3ccccc3Cl)c2)CC(O)C1 (stereo not shown)
class-name: F
--
compound: CCC(=O)N1CCC(c2ccc3c(c2)OCO3)C(O)C1 (stereo not shown)
class-name: T
--
compound: O=C(O)c1nc[nH]c1C(=O)N1CCN(c2ccccn2)CC1
class-name: T

Input line: # strict comparison: is reported Secondary Screen ZCCL2 < -0.9? input = `CC(=O)N1CCCn2nc(CNc3nc4ccccc4s3)cc2C1`
Output line: T

Input line: # strict comparison: is reported Secondary Screen ZCCL2 < -0.9? input = `O=C(O)CCc1cc2n(n1)CCCN(Cc1c[nH]nc1C(=O)O)C2`
Output line: F
